# TARGET ENTITY: pooled human IgG (human); further: test concentration or dose not given here
# PROTOCOL TEXT: cell-based or functional assay
MEASURE NAME: Enzyme Activity Endpoint Assay (purified): Fab′2
Your reply should be a number followed by the unit it is expressed in.

Return Enzyme Activity Endpoint Assay (purified): Fab′2 for the following binder: PRT-198 (enzyme) MEVVEVWPYGQNPNGKTEILSQTEDSESLQRLRDIEDFQAEKKKQGVVYTKWLDGVDVKDHDFRKIVDGNIAYYATPLLNGRGFYDINKDFNRDSDKCAAAVAANMFHYWLDINRDNVDRFLRQNPEKHGIIELPDGQLKLSDFLNTYESDHGYRDKSKLFDFISNNFNGPVWTDKLLDNYINGYAYNYKYGRTIEDPTKNTSKINFFKEVFNEKILTNNHSIRNQNEFSDLLSEALYTGKAIGLSYGPAGLRHSLGHIISVWGADLDADGNVVAIYVTDSDDKKLTIGDERVGLKRYKISTDDENRLRLTAYEETHNTGGQIRGLYTLDTGKQAWADYFDKTEQTGTDQAEQLEHHHHHH
621 ng/µL

Return Enzyme Activity Endpoint Assay (purified): Fab′2 for the following binder: PRT-212 (enzyme) MEVVEVWPYGQNPNGKTEILSQTEDSESLQRLRDIEDFQAEKKKEGVVYTKWLDGVDVKDHDFRKIVDGNIEYYATPLLNGRGFYDINKDFNQDSDKCAAAVAANMFHYWLDRNRDNVDRFLSQNPEKHGIIELPDGQLKLSDFLNTYESDDGYRDKSKLFDLISNNFNGPVWTDKLLDNYINGYAYNYKYGRTIEDPTKNTSKINFFKEVFNEKILTNIHSIRNQNEFSDKLSEALYTGKAIGLSYGPAGLRHSLGHIISVWGADLDEDGNVVAIYVTDSDDKKLTIGDERVGLKRYKVSTDDEGRLRLTAYEETDNTGGEIRGIWTLDTGKQAWADYFDKTEQTGTDQAEQLEHHHHHH
13 ng/µL
